- test system: Xanthine dehydrogenase/oxidase (Bos taurus)
- Sequence (P80457 whole entry): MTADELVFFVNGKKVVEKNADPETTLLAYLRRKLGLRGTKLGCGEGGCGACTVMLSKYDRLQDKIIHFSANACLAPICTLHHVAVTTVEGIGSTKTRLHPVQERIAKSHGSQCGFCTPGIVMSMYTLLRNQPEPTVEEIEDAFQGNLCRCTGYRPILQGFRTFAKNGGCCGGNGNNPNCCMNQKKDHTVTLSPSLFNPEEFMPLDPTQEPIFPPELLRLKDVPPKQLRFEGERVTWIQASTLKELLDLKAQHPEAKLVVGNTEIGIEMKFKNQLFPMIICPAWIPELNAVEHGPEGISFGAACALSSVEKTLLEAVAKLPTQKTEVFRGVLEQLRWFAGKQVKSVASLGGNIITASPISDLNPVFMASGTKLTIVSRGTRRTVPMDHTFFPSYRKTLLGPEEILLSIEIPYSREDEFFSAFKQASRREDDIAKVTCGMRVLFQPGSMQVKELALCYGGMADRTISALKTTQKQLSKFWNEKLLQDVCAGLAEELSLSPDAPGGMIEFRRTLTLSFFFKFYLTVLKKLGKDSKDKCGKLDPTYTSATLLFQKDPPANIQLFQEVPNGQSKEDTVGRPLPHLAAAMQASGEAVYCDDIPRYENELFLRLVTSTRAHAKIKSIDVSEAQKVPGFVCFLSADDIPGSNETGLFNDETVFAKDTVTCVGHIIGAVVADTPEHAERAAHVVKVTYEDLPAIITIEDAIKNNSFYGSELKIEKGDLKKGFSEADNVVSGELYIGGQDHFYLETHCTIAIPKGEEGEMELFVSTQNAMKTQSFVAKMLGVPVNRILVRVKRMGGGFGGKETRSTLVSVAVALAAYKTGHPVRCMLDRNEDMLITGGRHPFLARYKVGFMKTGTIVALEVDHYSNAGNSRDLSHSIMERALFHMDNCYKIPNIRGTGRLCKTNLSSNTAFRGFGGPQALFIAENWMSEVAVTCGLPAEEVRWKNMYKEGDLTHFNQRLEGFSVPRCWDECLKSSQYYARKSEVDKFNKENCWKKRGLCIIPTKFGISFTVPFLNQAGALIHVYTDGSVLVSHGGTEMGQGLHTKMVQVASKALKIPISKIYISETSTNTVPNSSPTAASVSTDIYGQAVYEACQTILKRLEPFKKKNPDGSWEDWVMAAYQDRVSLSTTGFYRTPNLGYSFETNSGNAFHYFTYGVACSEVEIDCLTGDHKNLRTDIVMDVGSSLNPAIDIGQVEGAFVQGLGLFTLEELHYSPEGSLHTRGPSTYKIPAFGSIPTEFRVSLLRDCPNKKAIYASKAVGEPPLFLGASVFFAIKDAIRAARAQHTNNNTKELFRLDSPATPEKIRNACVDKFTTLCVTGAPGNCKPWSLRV
- measurement description: Activity at bovine xanthine oxidase at 10 uM
- study conditions: cattle
The threshold is 6 s⁻¹. Values of Kcat beneath it are tagged 1; values meeting or exceeding it are tagged -1.

Query: I wonder whether O=c1cc(-c2ccc(O)c(O)c2)oc2cc(O)cc(O)c12 [LUTEOLIN] has Kcat below 6 s⁻¹. Can you tell?
Result: -1

Query: Record COc1cc(C2Oc3cc([C@H]4Oc5cc(O)cc(O)c5C(=O)[C@@H]4O)ccc3OC2CO)ccc1O (stereo not given in full) [SILIBININ] : is its Kcat strictly below 6 s⁻¹?
Result: 1

Query: Does the reported Kcat of COc1cc(/C=C/C(=O)CC(=O)/C=C/c2ccc(O)c(OC)c2)ccc1O [CURCUMIN] stay below 6 s⁻¹?
Result: 1

Query: Is Kcat of O=c1c(O)c(-c2ccc(O)c(O)c2)oc2cc(O)cc(O)c12 [QUERCETIN] strictly below 6 s⁻¹?
Result: 1
